TGI values, listed per item
Test system: TK-10 renal
assay: NCI tumour cell line growth inhibition, 48 h

>>> result("Oc1ccc(OCCOc2ccc(O)cc2)cc1")
"> 100 µM"
>>> result("CC1(C)OC(C(C)(C)O)C(C(C)(C)O)O1 (stereo not given)")
"> 100 µM"
>>> result("O=C(O)Cc1cc(F)ccc1C(=O)O")
"> 100 µM"

Req: Recorded TGI of C=C(C)[C@@H]1/C=C(/C(C)C)CC[C@@]2(C)OC2CC[C@H](C)CC1=O (stereo not given in full) , please.
Resp: > 79.4 µM

Req: Recorded TGI of NCCC1([N+](=O)[O-])C=CN=CC1 (stereo not given) , please.
Resp: > 100 µM

Req: Recorded TGI of `COc1cc(Nc2cc(O)c3c(=O)cc(-c4ccccc4)oc3c2)cc(OC)c1` , please.
Resp: 46.6 µM

Req: Recorded TGI of `NCCCNC(=O)c1csc(NC(=O)c2csc(NC(=O)CCCN)n2)n1` , please.
Resp: > 100 µM

Req: Recorded TGI of COc1ccc(NC2C(=O)C3(C)CCC2C3(C)C)cc1 (stereo not given) , please.
Resp: > 100 µM

Req: Recorded TGI of CCCCCCCCCCCCCCCCOCC(Cl)CP(=O)(O)OP(=O)(O)OCC1OC(n2cnc3c(N)ncnc32)C(O)C1O (stereo not given) , please.
Resp: > 100 µM

Req: Recorded TGI of C=CC(O)(CBr)CCC(Br)C(C)(C)Cl (stereo not given) , please.
Resp: > 10 µM

Req: Recorded TGI of `COc1ccc(Cc2c(N)[nH]c(=O)[nH]c2=O)cc1` , please.
Resp: > 100 µM

Req: Recorded TGI of `COc1ccccc1/C=C/C(=O)c1ccc(Nc2nc(Nc3ccc(F)cc3)nc(Nc3ccc(F)cc3)n2)cc1` , please.
Resp: > 100 µM

Req: Recorded TGI of CSc1ccc(C2=NN(c3ccccc3)C(c3ccc(-c4cc(Cl)c(Cl)cc4Cl)o3)C2)cc1 (stereo not given) , please.
Resp: > 100 µM

Req: Recorded TGI of `O=C(/C=C/c1c(-c2ccccc2)[nH]c2ccccc12)S(=O)(=O)c1ccccc1` , please.
Resp: > 100 µM

Req: Recorded TGI of `CCCCc1ccc(NS(=O)(=O)c2cc3c4c(c2)CCN4C(=O)CC3)cc1` , please.
Resp: 55 µM

Req: Recorded TGI of COc1cc(/C=C2\CCC(C)(CN(C)C)C2=O)cc(OC)c1OC (stereo not given) , please.
Resp: > 100 µM

Req: Recorded TGI of `COC(=O)CCCC(=O)C1=Nc2ccccc2CN(c2ccc(Cl)cc2)N1` , please.
Resp: > 100 µM

Req: Recorded TGI of CN1C(=O)C(/C=N/NC(=O)c2cccnc2)C(N)N(C)C1=O (stereo not given) , please.
Resp: > 100 µM

Req: Recorded TGI of `CC[C@@]1(O)C(=O)OCc2c1cc1n(c2=O)Cc2c-1nc1ccccc1c2/C=N/NC(=O)C[N+](C)(C)C` , please.
Resp: > 100 µM

Req: Recorded TGI of CC(=O)O[C@]1(C)CCC2C(C)C(=O)OC2C2C(C)[C@@H](O)CC21 (stereo not given in full) , please.
Resp: > 100 µM

Req: Recorded TGI of Clc1ccc(Cc2nc3cc(Cl)c(Cl)cc3n2CC2CCCN3CCCCC23)cc1Cl (stereo not given) , please.
Resp: 19.5 µM

Req: Recorded TGI of `N#Cc1cc(-c2ccnc(Nc3ccc(NC(=O)CCl)cc3)n2)ccc1N1CCCC1` , please.
Resp: 3.48 µM
